# target or system: Opioid receptors; mu & kappa (Homo sapiens) (UniProt P41145+P35372)
# Sequence (P35372 whole entry, looked up): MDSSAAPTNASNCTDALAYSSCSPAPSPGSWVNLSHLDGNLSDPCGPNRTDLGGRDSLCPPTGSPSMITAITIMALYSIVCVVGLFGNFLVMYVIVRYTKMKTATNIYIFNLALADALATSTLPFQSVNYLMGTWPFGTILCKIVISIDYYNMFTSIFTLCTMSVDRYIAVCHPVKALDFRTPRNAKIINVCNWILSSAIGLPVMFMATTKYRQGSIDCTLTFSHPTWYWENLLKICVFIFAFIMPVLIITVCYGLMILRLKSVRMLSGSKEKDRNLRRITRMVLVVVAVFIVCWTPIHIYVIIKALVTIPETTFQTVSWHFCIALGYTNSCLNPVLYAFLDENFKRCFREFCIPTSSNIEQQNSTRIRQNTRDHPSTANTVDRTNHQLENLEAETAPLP
# Sequence (P41145 whole entry, looked up): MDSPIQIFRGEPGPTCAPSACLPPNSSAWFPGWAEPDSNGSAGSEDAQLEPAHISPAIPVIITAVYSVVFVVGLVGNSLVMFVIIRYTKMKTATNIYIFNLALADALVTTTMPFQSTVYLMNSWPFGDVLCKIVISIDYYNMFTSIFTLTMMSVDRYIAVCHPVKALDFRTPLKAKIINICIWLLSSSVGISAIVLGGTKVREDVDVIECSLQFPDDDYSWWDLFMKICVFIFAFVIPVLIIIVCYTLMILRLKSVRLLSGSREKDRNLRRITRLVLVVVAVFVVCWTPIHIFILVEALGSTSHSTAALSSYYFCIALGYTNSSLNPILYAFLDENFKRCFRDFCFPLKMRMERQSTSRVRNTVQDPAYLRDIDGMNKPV
# protocol: Ratio of (Ki) mu-opioid receptor to that of (Ki) kappa-opioid receptor
# Assay type: protein assay
measurement type: Ratio

1) N=C(N)NCCc1ccc2[nH]c3c(c2c1)C[C@@]1(O)[C@H]2Cc4ccc(O)c5c4[C@@]1(CCN2CC1CC1)[C@H]3O5 :: 12
2) CCCN/C(=N\CC1CC1)Nc1ccc2[nH]c3c(c2c1)C[C@@]1(O)[C@H]2Cc4ccc(O)c5c4[C@@]1(CCN2CC1CC1)[C@H]3O5 :: 9
3) N/C(=N\CCc1ccc2[nH]c3c(c2c1)C[C@@]1(O)[C@H]2Cc4ccc(O)c5c4[C@@]1(CCN2CC1CC1)[C@H]3O5)NCc1ccc(Cl)cc1 :: 3
4) CCCC/N=C(\NCCCC)NCCc1ccc2[nH]c3c(c2c1)C[C@@]1(O)[C@H]2Cc4ccc(O)c5c4[C@@]1(CCN2CC1CC1)[C@H]3O5 :: 1.5
5) N/C(=N/Cc1ccccc1)Nc1ccc2[nH]c3c(c2c1)C[C@@]1(O)[C@H]2Cc4ccc(O)c5c4[C@@]1(CCN2CC1CC1)[C@H]3O5 :: 12

----------
# target or system: Kappa-type opioid receptor (Homo sapiens, UniProt P41145)
# Sequence (P41145 whole entry): as the sequence (P41145 whole entry, looked up) above
# protocol: Antagonistic activity against cloned human Opioid receptor kappa 1 using U69,593 as ligand in [35S]GTP-gamma-S, assay
# Format: functional
Entries and their measured Ke follow.
measurement type: Ke

1. CCCN/C(=N\CC1CC1)Nc1ccc2[nH]c3c(c2c1)C[C@@]1(O)[C@H]2Cc4ccc(O)c5c4[C@@]1(CCN2CC1CC1)[C@H]3O5 :: 0.08 nM
2. CCC/N=C(\NCCC)Nc1ccc2[nH]c3c(c2c1)C[C@@]1(O)[C@H]2Cc4ccc(O)c5c4[C@@]1(CCN2CC1CC1)[C@H]3O5 :: 0.26 nM
3. N/C(=N\CCc1ccc2[nH]c3c(c2c1)C[C@@]1(O)[C@H]2Cc4ccc(O)c5c4[C@@]1(CCN2CC1CC1)[C@H]3O5)NCc1ccc(N)cc1 :: 0.25 nM
4. N/C(=N/Cc1ccc([N+](=O)[O-])cc1)Nc1ccc2[nH]c3c(c2c1)C[C@@]1(O)[C@H]2Cc4ccc(O)c5c4[C@@]1(CCN2CC1CC1)[C@H]3O5 :: 0.18 nM
